self-cleavage values for the variants below.
B1: CPEB3 Ribozyme (parent)
chain: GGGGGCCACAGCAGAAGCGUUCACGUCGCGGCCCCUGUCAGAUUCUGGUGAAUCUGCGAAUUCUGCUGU

variants of: B1; assay: self-cleavage, relative activity (ratio to wild type); higher = more cleavage; co-transcriptional
metric: self-cleavage

[[record]]
querysequence = "GGGGGCCACAGCAGAAGCGUUCACGUCGCGGCCCAUGUCAGAUUCUGGUGAAUCUGCGAAGUCUGCUGU [C35A U61G]"
metric = "self-cleavage"
numericreadout = 0.288

[[record]]
querysequence = "GGGGGCCACAGCAGAAGCGUUCACGUCGCGGCCCCUGUCAGAUUCUGGUGAAUCCGAGAAUUCUGCUGU [U55C C57A]"
metric = "self-cleavage"
numericreadout = 0.367

[[record]]
querysequence = "GGGGGCCACAGCAGAAGCGUUCACGUCGCGGCCCCUGUAAGAUUCUGGUGAAUCUGCGAACUCUGCUGU [C39A U61C]"
metric = "self-cleavage"
numericreadout = 0.328

[[record]]
querysequence = "GGGGGCCACAGCACAAGCGUUCACGUCGCGGCCCCUGUCAGGUUCUGGUGAAUCUGCGAAUUCUGCUGU [G14C A42G]"
metric = "self-cleavage"
numericreadout = 0.266

[[record]]
querysequence = "GGGGGCCACAGCAGAAGCGUUGACGUCGCGGCCCCUGUCAAAUUCUGGUGAAUCUGCGAAUUCUGCUGU [C22G G41A]"
metric = "self-cleavage"
numericreadout = 0.147

[[record]]
querysequence = "GAGGGCCACAGGAGAAGCGUUCACGUCGCGGCCCCUGUCAGAUUCUGGUGAAUCUGCGAAUUCUGCUGU [G2A C12G]"
metric = "self-cleavage"
numericreadout = 0.123

[[record]]
querysequence = "GGGGGCCACAGCAGAAGCGUUCAGGUCGCGGCCCCUGCCAGAUUCUGGUGAAUCUGCGAAUUCUGCUGU [C24G U38C]"
metric = "self-cleavage"
numericreadout = 0.413

[[record]]
querysequence = "GGGGUCCACAGCAGAAGCGUUCACGGCGCGGCCCCUGUCAGAUUCUGGUGAAUCUGCGAAUUCUGCUGU [G5U U26G]"
metric = "self-cleavage"
numericreadout = 0.103

[[record]]
querysequence = "GGGGGCCACAGCAGAACCGUUCACGUCGCGGCCCCUGCCAGAUUCUGGUGAAUCUGCGAAUUCUGCUGU [G17C U38C]"
metric = "self-cleavage"
numericreadout = 0.137

[[record]]
querysequence = "GGGGGCCACAACAGAAGCGUUCACGUCGCGGCCCCUGUCAGAUUCUGGUGAAUCUGCGAGUUCUGCUGU [G11A A60G]"
metric = "self-cleavage"
numericreadout = 0.434

[[record]]
querysequence = "AGGGGCCACAGCAGAAGCGUACACGUCGCGGCCCCUGUCAGAUUCUGGUGAAUCUGCGAAUUCUGCUGU [G1A U21A]"
metric = "self-cleavage"
numericreadout = 0.132

